- Test system: EPHA2;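 further: KINOMEscan kinase panel screen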
- RECORDED_CONDITIONS: concentration: 1 μM,replicates: in singlicate; n = 1
# Lookup of reported %Inh keyed by entry

| COMPOUND | %Inh / % |
| --- | --- |
| Cn1ccc2ncnc(Oc3ccc(NC(=O)Nc4ccnc(C(F)(F)F)c4)c(Cl)c3)c21 | 0 |
| C[C@@H]1CCN(C(=O)N2CCCC2)C[C@@H]1N(C)c1ncnc2[nH]ccc12 | 0 |
| C[C@@H](Oc1cc(-n2cnc3cc(-c4cnn(C)c4)ccc32)sc1C(N)=O)c1ccccc1Cl [GSK580432] | 29 |
| COc1cccc(OC)c1C(=O)Nc1cccc(-c2nn3ccccc3c2-c2ccnc(Nc3cccc(F)c3)n2)c1 [GSK361065] | 11 |
| Cn1ccc2ncnc(Oc3ccc(NC(=O)Nc4cccc(C(F)(F)F)c4)c(Cl)c3)c21 | 94.5 |
| CC(=O)c1c(-c2ccncc2)[nH]c(-c2ccncc2)c1C [GW493036] | 6 |
